Biological target: α6β2‡ nAChR, TrpB (α6:W149) = Trp (Rattus norvegicus, UniProt P12390+P43143, L273S/L280S/L348M/R364A/R365A/R367A)
Assay: TEVC dose-response, nonsense suppression series, Trp at TrpB
Settings: Table 4

{"entrySmiles": "C1=C(/c2cncnc2)CCCNCC/1", "EC50": "93 nM"}

====

Molecular target: α6β2‡ nAChR, TrpB (α6:W149) = 5-Me-Trp (Rattus norvegicus, UniProt P12390+P43143, L273S/L280S/L348M/R364A/R365A/R367A/W179X)
Assay: TEVC dose-response, nonsense suppression, MeTrp at TrpB
Settings: Table 4

{"compound": "C1=C(/c2cncnc2)CCCNCC/1 [TC299]", "EC50 / µM": 0.073}

====

Target: α6L9′Sβ2L9′SLFM/AAQA (α6β2‡) nAChR (Rattus norvegicus, UniProt P12390+P43143, L273S/L280S/L348M/R364A/R365A/R367A)
Sequence (P43143 31-493 L280S): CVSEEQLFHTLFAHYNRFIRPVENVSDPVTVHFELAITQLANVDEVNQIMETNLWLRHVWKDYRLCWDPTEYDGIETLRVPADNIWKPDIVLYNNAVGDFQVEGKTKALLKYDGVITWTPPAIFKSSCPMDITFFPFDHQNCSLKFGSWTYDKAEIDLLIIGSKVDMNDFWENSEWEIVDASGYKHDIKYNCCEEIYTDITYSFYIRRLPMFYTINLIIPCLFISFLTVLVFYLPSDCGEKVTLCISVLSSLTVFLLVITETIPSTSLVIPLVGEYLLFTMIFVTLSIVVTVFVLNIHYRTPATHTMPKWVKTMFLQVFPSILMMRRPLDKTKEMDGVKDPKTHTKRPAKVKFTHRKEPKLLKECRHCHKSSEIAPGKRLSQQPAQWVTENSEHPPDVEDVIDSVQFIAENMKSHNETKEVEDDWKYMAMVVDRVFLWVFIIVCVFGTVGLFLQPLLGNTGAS
Sequence (P12390 25-500 L273S/L348M/R364A/R365A/R367A): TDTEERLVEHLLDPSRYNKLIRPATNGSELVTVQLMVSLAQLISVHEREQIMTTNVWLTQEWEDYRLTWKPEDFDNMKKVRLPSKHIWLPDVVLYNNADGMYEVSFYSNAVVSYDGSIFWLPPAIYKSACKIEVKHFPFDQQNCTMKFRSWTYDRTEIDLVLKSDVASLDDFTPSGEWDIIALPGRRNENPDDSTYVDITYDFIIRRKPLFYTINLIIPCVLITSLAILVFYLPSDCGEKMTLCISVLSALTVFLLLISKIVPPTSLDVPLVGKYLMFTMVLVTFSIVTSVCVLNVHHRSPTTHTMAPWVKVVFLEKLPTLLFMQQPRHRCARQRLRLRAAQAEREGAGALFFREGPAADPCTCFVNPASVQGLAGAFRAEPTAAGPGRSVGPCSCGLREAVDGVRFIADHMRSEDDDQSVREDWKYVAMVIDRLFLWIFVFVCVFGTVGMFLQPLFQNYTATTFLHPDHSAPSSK
Assay: cell-based
Format: cell-based
Settings: EC50, agonist panel, α6-biased population, holding potential −60 mV

{"entrySmiles": "c1cnc2cc3c(cc2n1)[C@@H]1CNC[C@H]3C1", "EC50, nM": 31}

====

Target: α6β2‡ nAChR, TrpB (α6:W149) = 5,6,7-F3Trp (Rattus norvegicus, UniProt P12390+P43143, L273S/L280S/L348M/R364A/R365A/R367A/W179X)
Test: TEVC dose-response, nonsense suppression, F3Trp at TrpB
Conditions: Table 4

{"compound": "C1=C(/c2cncnc2)CCCNCC/1 [TC299]", "EC50 [µM]": 0.63}
